target entity: rat MCH-1 (Rattus norvegicus, UniProt P97639)
Sequence (P97639 whole entry): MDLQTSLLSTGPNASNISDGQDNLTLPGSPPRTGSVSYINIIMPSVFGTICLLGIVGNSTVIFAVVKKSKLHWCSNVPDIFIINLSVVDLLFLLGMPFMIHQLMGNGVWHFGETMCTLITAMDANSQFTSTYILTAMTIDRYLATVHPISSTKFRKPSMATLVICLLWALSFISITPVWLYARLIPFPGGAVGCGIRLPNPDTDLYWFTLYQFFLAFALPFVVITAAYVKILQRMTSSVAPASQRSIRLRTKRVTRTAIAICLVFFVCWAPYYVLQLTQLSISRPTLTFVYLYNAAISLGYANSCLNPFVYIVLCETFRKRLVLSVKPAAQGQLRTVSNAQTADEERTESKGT
assay remarks: Radioligand binding assay at cloned rat MCH1 receptor ([3H] Compound A)
Set-up: host or cells: Peak rapid 293 (Peakr293) cells, transient calcium phosphate transfection, membranes
conditions: cloned rat MCH1 receptor; 0.08 nM [3H] Compound A; Peakr293 cell membranes; read-out: Ki (nM) rMCH1
assay metric: Ki (nM)

As a guide, the following entries are already answered.
INSERT INTO assay_data (compound, target_entity, assay_metric, observed_measurement) VALUES
  ('CC(C)C(=O)Nc1cccc(C2CCN(Cc3cn(-c4ccccc4F)c4ccccc34)CC2)c1', 'rat MCH-1 (Rattus norvegicus, UniProt P97639)', 'Ki', 8.5),
  ('CC(C)C(=O)Nc1cccc(C2CCN(CCCCCCC(Oc3cc(C(F)(F)F)ccc3F)c3ccccc3F)CC2)c1 (stereo not drawn)', 'rat MCH-1 (Rattus norvegicus, UniProt P97639)', 'Ki', 78),
  ('CC(C)C(=O)Nc1cccc(C2CCN(CCCCC(Oc3ccc(F)cc3)c3ccccc3)CC2)c1 (stereo not drawn)', 'rat MCH-1 (Rattus norvegicus, UniProt P97639)', 'Ki', 1.8);

a. CC(C)C(=O)Nc1cccc(C2CCN(Cc3cccc4c3ccn4-c3ccncc3)CC2)c1
b. CCC(=O)Nc1cccc(C2CCN(CCCCC(=O)c3cccc(F)c3)CC2)c1
c. O=C(Nc1cccc(C2CCN(Cc3cn(-c4ccc(Cl)cc4)c4cc(Cl)ccc34)CC2)c1)C1CC1
d. CC(C)C(=O)Nc1cccc(C2CCN(CCCc3c(-c4ccc(C(F)(F)F)cc4)n(C)c4ccccc34)CC2)c1
e. CC(C)C(=O)Nc1cccc(C2CCN(Cc3cccc4c3ccn4-c3ccccc3C(F)(F)F)CC2)c1
Exercise: Order each entry by recorded Ki, climbing from the minimum. When ranking, write the labels in the order the request describes.
Key: d, c, b, a, e

1. CC(C)C(=O)Nc1cccc(C2CCN(Cc3ccc4c(ccn4-c4cccc(C(F)(F)F)c4)c3)CC2)c1
2. CC(C)C(=O)Nc1cccc(C2CCN(Cc3cccc4ccn(-c5cccnc5)c34)CC2)c1
Exercise: Please choose the item with the lower Ki value from this pair: 1 and 2 Please identify the chosen entry by its label.
Key: 1
(1: 9.5 nM, 2: 892 nM)

1. CC(C)C(=O)Nc1cccc(C2CCN(Cc3c[nH]c4cc(F)ccc34)CC2)c1
2. O=C(Nc1cccc(C2CCN(Cc3c[nH]c4c([N+](=O)[O-])cccc34)CC2)c1)C1CC1
3. CC(C)C(=O)Nc1cccc(C2CCN(Cc3cn(-c4cccc(Cl)c4)c4ccccc34)CC2)c1
Exercise: Order each entry by recorded Ki, climbing from the minimum. When ranking, write the labels in the order the request describes.
Key: 3, 2, 1
(3: 15.3 nM, 2: 151 nM, 1: 654 nM)

I. COc1ccc2c(CN3CCC(c4cccc(NC(=O)C(C)C)c4)CC3)c[nH]c2c1
II. CC(C)C(=O)Nc1cccc(C2CCN(CCCc3c(-c4cccc(F)c4)[nH]c4c3ccc3ccccc34)CC2)c1
III. CC(C)C(=O)Nc1cccc(C2CCN(CCCCC(Oc3cc(C(F)(F)F)ccc3F)c3ccc(F)cc3)CC2)c1 (stereo not drawn)
IV. CCOC(=O)c1[nH]c2ccccc2c1CN1CCC(c2cccc(NC(=O)C(C)C)c2)CC1
V. Cc1cccc(-n2cc(CN3CCC(c4cccc(NC(=O)C(C)C)c4)CC3)c3ccccc32)c1
Exercise: Order each entry by recorded Ki, climbing from the minimum. When ranking, write the labels in the order the request describes.
Key: II, V, III, I, IV

====

target entity: rat MCH-1 (Rattus norvegicus)
assay remarks: Radioligand binding assay at cloned rat MCH1 receptor ([3H] Compound A)
Set-up: host or cells: Peak rapid 293 (Peakr293) cells, transient calcium phosphate transfection, membranes
conditions: cloned rat MCH1 receptor; 0.08 nM [3H] Compound A; Peakr293 cell membranes; read-out: Ki (nM) rMCH1
assay metric: Ki (nM)

INSERT INTO measurements (compound, assay_metric, observed_measurement) VALUES
  ('CC(C)C(=O)Nc1cccc(C2CCN(CCCCC(O)c3ccc(C(F)(F)F)cc3)CC2)c1 (centres unmarked)', 'Ki', 191),
  ('CC(C)C(=O)Nc1cccc(C2CCN(Cc3ccc(C(C)(C)C)cc3)CC2)c1', 'Ki', 14.1),
  ('Cc1ccc(-n2ccc3cc(CN4CCC(c5cccc(NC(=O)C(C)C)c5)CC4)ccc32)cc1', 'Ki', 19.1);

a. COc1cccc(-n2cc(CN3CCC(c4cccc(NC(=O)C(C)C)c4)CC3)c3ccccc32)c1
b. CCOc1ccccc1OC(CCCCCN1CCC(c2cccc(NC(=O)C(C)C)c2)CC1)c1ccccc1F (centres unmarked)
Exercise: Please choose the item with the lower Ki value from this pair: a and b Please identify the chosen entry by its label.
Key: b

a. CC(C)C(=O)Nc1cccc(C2CCN(CCCNS(=O)(=O)c3ccccc3F)CC2)c1
b. CC(C)C(=O)Nc1cccc(C2CCN(CCCCn3ccc4ccccc43)CC2)c1
Exercise: Please choose the item with the lower Ki value from this pair: a and b Please identify the chosen entry by its label.
Key: b
(b: 35.9 nM, a: 130 nM)

====

target entity: rat MCH-1 (Rattus norvegicus)
assay remarks: Radioligand binding assay at cloned rat MCH1 receptor ([3H] Compound A)
Design: host or cells: Peak rapid 293 (Peakr293) cells, transient calcium phosphate transfection, membranes
conditions: cloned rat MCH1 receptor; 0.08 nM [3H] Compound A; Peakr293 cell membranes; read-out: Ki (nM) rMCH1
assay metric: Ki (nM)

As a guide, the following entries are already answered.
INSERT INTO measurements (compound, observed_measurement) VALUES
  ('CC(=O)c1ccc(-c2cccc3c(CN4CCC(c5cccc(NC(=O)C(C)C)c5)CC4)c[nH]c23)cc1', 247),
  ('O=C(CCCCN1CCC(c2cccc(NC(=O)C3CC3)c2)CC1)c1ccc(Cl)cc1', 20.2);

a. Cc1ccc2[nH]c(-c3cccc([N+](=O)[O-])c3)c(CCCN3CCC(c4cccc(NC(=O)C(C)C)c4)CC3)c2c1
b. CC(C)C(=O)Nc1cccc(C2CCN(CCCc3c(-c4ccc(C(F)(F)F)cc4)n(-c4ccccc4)c4ccccc34)CC2)c1
Exercise: Consider a and b . Which of these has its Ki at a higher number? Please identify the chosen entry by its label.
Key: b

====

target entity: rat MCH-1 (Rattus norvegicus)
assay remarks: Radioligand binding assay at cloned rat MCH1 receptor ([3H] Compound A)
Design: host or cells: Peak rapid 293 (Peakr293) cells, transient calcium phosphate transfection, membranes
conditions: cloned rat MCH1 receptor; 0.08 nM [3H] Compound A; Peakr293 cell membranes; read-out: Ki (nM) rMCH1
assay metric: Ki (nM)

INSERT INTO measurements (query_smiles, observed_measurement) VALUES
  ('CC(C)C(=O)Nc1cccc(C2CCN(CCCNC(=O)N3C(=O)OC[C@@H]3c3ccc(F)c(F)c3)CC2)c1', 74.3),
  ('CCC(=O)Nc1cccc(C2CCN(CCCSc3ccccc3)CC2)c1', 131),
  ('CCC(=O)Nc1cccc(C2CCN(CCCC(=O)c3ccc(OC)cc3)CC2)c1', 105);

====

target entity: rat MCH-1 (Rattus norvegicus)
assay remarks: Radioligand binding assay at cloned rat MCH1 receptor ([3H] Compound A)
Design: host or cells: Peak rapid 293 (Peakr293) cells, transient calcium phosphate transfection, membranes
conditions: cloned rat MCH1 receptor; 0.08 nM [3H] Compound A; Peakr293 cell membranes; read-out: Ki (nM) rMCH1
assay metric: Ki (nM)

As a guide, the following entries are already answered.
INSERT INTO assay_data (compound, unit_annotation, observed_measurement) VALUES
  ('COc1cccc(-n2ccc3cccc(CN4CCC(c5cccc(NC(=O)C(C)C)c5)CC4)c32)c1 [Example 860]', 'nM', 40.5),
  ('CC(C)C(=O)Nc1cccc(C2CCN(CCCCCC(Oc3cc(C(F)(F)F)ccc3F)c3ccccc3F)CC2)c1 (centres unmarked) [Example 913]', 'nM', 12.9),
  ('CC(C)C(=O)Nc1cccc(C2CCN(CCCc3c(-c4ccccc4Br)[nH]c4ccc(OC(F)(F)F)cc34)CC2)c1 [Example 782]', 'nM', 18.1),
  ('CC(=O)c1cccc(OC(CCCCN2CCC(c3cccc(NC(=O)C(C)C)c3)CC2)c2ccc(Cl)cc2)c1 (centres unmarked) [Example 933]', 'nM', 10.9),
  ('CC(C)C(=O)Nc1cccc(C2CCN(CC[C@H](NS(=O)(=O)c3ccc(F)cc3)c3ccccc3)CC2)c1 [Example 598]', 'nM', 25.3),
  ('COc1ccc2[nH]c(C)c(CN3CCC(c4cccc(NC(=O)C(C)C)c4)CC3)c2c1 [Example 427]', 'nM', 248);

P. Cc1onc(-c2c(Cl)cccc2Cl)c1C(=O)NCCCCN1CCC(c2cccc(NC(=O)C(C)C)c2)CC1 [Example 651]
Q. CC(C)C(=O)Nc1cccc(C2CCN(Cc3cn(-c4ccccc4Cl)c4ccccc34)CC2)c1 [Example 460]
Exercise: Please choose the item with the lower Ki value from this pair: P and Q Please identify the chosen entry by its label.
Key: Q

A. Cc1cccc2c(CCCN3CCC(c4cccc(NC(=O)C(C)C)c4)CC3)c[nH]c12 [Example 417]
B. CC(C)C(=O)Nc1cccc(C2CCN(CCCNC(=O)Nc3ccccc3)CC2)c1 [Example 618]
Exercise: Consider A and B . Which of these has its Ki at a higher number? Please identify the chosen entry by its label.
Key: B
